System: SN12C renal
Test: NCI tumour cell line growth inhibition, 48 h
molecules and their reported TGI
Give your result in µM as a bare value.

The examples below pair each entry with its known result.
# Molecule, Reported Property, Observed Measurement
rows = [
    ("COC(=O)C(C)NC(=O)c1ccccc1I(OS(=O)(=O)C(F)(F)F)c1ccccc1 (stereo unspecified)", "TGI", 32.4),
    ("CC1(C)C(=O)/C(=C\\c2cccnc2)C[C@]2(C)[C@H]3CC[C@@H]4[C@@H](C(=O)/C=C/c5ccncc5)CC[C@@]4(C)[C@]3(C)CC[C@@H]12", "TGI", 7.85),
    ("CCN1CCC(O)(/C=C/c2ccc(C(C)C)cc2)C(C(=O)/C=C/c2ccc(C(C)C)cc2)C1 (stereo unspecified)", "TGI", 6.06),
    ("C[C@@H]1COCCN1c1cc(C2(O)C[C@H]3CC[C@@H](C2)O3)c2cnn(-c3ccn[nH]3)c2n1 (stereo partly specified)", "TGI", 4.09),
    ("C[C@H]1COC2=C1C(=O)C(=O)c1c2ccc2c1CCCC2(C)C", "TGI", 21.1),
    ("O=C1C(Cl)=C(Nc2cccc(C(F)(F)F)c2)C(=O)N1Cc1ccc(Cl)cc1", "TGI", 10.7),
]

## Task Supply measured TGI of `O=c1ccc2nc(-c3ccccn3)nn(-c3ccccc3)c-2c1` in your reply.
## Result 5.33

## Task Supply measured TGI of `[N-]=[N+]=Nc1c([N+](=O)[O-])c(=O)n2c3c(cccc13)CCC2` in your reply.
## Result 25.9

## Task Supply measured TGI of `C/C(=N\NC(=S)N(C)C)c1ccccn1` in your reply.
## Result 11.2

## Task Supply measured TGI of `CC#Cc1nc(Nc2cc(C)[nH]n2)c2ccccc2n1` in your reply.
## Result 10.4

###

Test system: HCT-15 colon
Test: NCI tumour cell line growth inhibition, 48 h; in the data active = GI50 below about 0.43 µM; inactive = the rest
The categories you may choose from are t (active), f (inactive)

# Query Smiles, Category Label
rows = [
    ("CN(C)CCCn1c(-c2nonc2N)nc2cnccc21", "f"),
    ("Oc1ccc(N=Nc2ccccn2)c(O)c1", "t"),
]

## Task Hi, sorry to bother you, what did the test record for `CNCCN=c1ccc2c3c1c(O)c1c(O)ccc(=O)c1c3[nH]n2CCNCCO` ?
## Result f

## Task Hi, sorry to bother you, what did the test record for `COc1ccc2ccc3oc([N+](=O)[O-])cc3c2c1` ?
## Result t

## Task Hi, sorry to bother you, what did the test record for `O=C(NC(=S)Nc1cc(Cl)ccc1O)c1cccc(Br)c1` ?
## Result f

## Task Hi, sorry to bother you, what did the test record for `C=C1C(=O)O[C@H]2[C@H]1CC/C(COC(=O)NCc1ccc(Cn3c(=O)sn(-c4ccccc4)c3=O)cc1)=C\CC[C@@]1(C)O[C@@H]21` ?
## Result f

## Task Hi, sorry to bother you, what did the test record for `CCN(Cc1c(Cl)cccc1Cl)c1ccc(CO)c(Cl)c1` ?
## Result f

## Task Hi, sorry to bother you, what did the test record for `CN(C)/N=N/c1nc[nH]c1C(N)=O` ?
## Result f

## Task Hi, sorry to bother you, what did the test record for `O=c1oc2c(C(F)(F)F)cccc2cc1-c1csc(Nc2ccc(OCCF)cc2)n1` ?
## Result t
